Data origin, for the record: paper doi:10.1101/2023.03.18.532921v1

- TARGET UNDER TEST: dA (isolated discontinuous domain A of LAO) (Salmonella enterica, UniProt P02911, DEL114-206)
- ASSAY PROCEDURE: biochemical
pKd: −log10 of the molar value.

{"STRUCTURE SMILES": "N=C(N)NCCC[C@H](N)C(=O)O", "pKd": 3.88}
